Test system: amidohydrolase (enzyme of this invention)
Experiment: Substrate specificity for N-acyl-amino acids (deacylation, standard assay)
Type: biochemical, Streptomyces fulvoviridis A933
Conditions: N-chloroacetyl-L-phenylalanine as 100
Consider the following partition of reported Relative activity into named classes: low group (below 3), middle group (3 to below 100), high group (100 or more)

Task item: GET /class?item= CC(=O)N[C@@H](C(=O)O)C(C)C [N--Acetyl-D-valine]
Reply: low group

Task item: GET /class?item= CC(=O)NCC(=O)O [N--Acetyl-glycine]
Reply: middle group

Task item: GET /class?item= CC(=O)N[C@H](C)C(=O)O [N--Acetyl-D-alanine]
Reply: low group

Task item: GET /class?item= CC(=O)N[C@@H](Cc1ccccc1)C(=O)O [N--Acetyl-L-phenylalanine]
Reply: middle group

Task item: GET /class?item= CC(C)C[C@H](NC=O)C(=O)O [N--Formyl-L-leucine]
Reply: middle group

Task item: GET /class?item= CC(=O)N[C@H](Cc1ccccc1)C(=O)O [N--Acetyl-D-phenylalanine]
Reply: low group

Task item: GET /class?item= CC(=O)N[C@H](CC(C)C)C(=O)O [N--Acetyl-D-leucine]
Reply: low group

Task item: GET /class?item= CSCC[C@@H](NC(C)=O)C(=O)O [N--Acetyl-D-methionine]
Reply: low group

Task item: GET /class?item= CC(C)[C@H](NC(=O)CCl)C(=O)O [N--Chloroacetyl-L-valine]
Reply: high group

Task item: GET /class?item= CC(=O)N[C@@H](CC(C)C)C(=O)O [N--Acetyl-L-leucine]
Reply: middle group

Task item: GET /class?item= CC(=O)N[C@@H](C)C(=O)O [N--Acetyl-L-alanine]
Reply: high group

Task item: GET /class?item= CC(=O)N[C@H](C(=O)O)C(C)C [N--Acetyl-L-valine]
Reply: middle group

Task item: GET /class?item= CC(=O)N[C@@H](CCCCN)C(=O)O [N--α-Acetyl-L-lysine]
Reply: middle group

Task item: GET /class?item= CC(C)C[C@H](NC(=O)CCl)C(=O)O [N--Chloroacetyl-L-leucine]
Reply: high group

Task item: GET /class?item= CSCC[C@H](NC(C)=O)C(=O)O [N--Acetyl-L-methionine]
Reply: high group

Task item: GET /class?item= CSCC[C@H](NC=O)C(=O)O [N--Formyl-L-methionine]
Reply: high group

Task item: GET /class?item= CC(=O)N[C@@H](CCC(=O)O)C(=O)O [N--Acetyl-L-glutamic acid]
Reply: low group
